Provenance of the data: patent US10040791B2

- SUBJECT_OF_TEST: IDH1R132C (Homo sapiens (Human), UniProt O75874, R132C)
- Sequence (O75874 whole entry R132C): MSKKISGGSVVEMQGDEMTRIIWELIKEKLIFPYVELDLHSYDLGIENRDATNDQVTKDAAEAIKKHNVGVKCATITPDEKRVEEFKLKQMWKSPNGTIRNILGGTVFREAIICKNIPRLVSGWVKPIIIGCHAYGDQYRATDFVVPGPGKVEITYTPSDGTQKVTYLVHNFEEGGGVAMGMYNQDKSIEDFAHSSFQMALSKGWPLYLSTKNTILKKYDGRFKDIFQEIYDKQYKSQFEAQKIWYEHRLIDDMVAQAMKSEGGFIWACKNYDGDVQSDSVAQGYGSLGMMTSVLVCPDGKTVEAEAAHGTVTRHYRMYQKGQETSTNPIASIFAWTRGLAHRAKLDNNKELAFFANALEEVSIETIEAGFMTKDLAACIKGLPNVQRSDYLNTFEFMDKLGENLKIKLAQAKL
- TEST_SUMMARY: Inhibitory activity against IDH1R132C enzyme (NADPH detection, WST-8)
- PROTOCOL_CONDITIONS: 10 nM, residual NADPH detected with WST-8, read-out: Test Example 1 IDH1 R132C IC50
MEASURE_NAME: IC50 (µM)

Worked cases, answers included:
- MOLECULE: "Cc1cn(C(=O)c2c(-c3c(Cl)cc(Cl)cc3Cl)noc2C(C)C)c2cccc(/C=C/C(=O)O)c12 [Example 29]"
  IC50 / µM: 0.102
- MOLECULE: "C#CC(=O)N1CCC(c2onc(-c3c(Cl)cc(Cl)cc3Cl)c2C(=O)n2ccc3c(/C=C/C(=O)O)cccc32)CC1 [Example 100]"
  IC50 / µM: 0.189
- MOLECULE: "CC(C)(F)c1onc(-c2c(Cl)cc(Cl)cc2Cl)c1C(=O)n1ccc2c(/C=C/C(=O)O)cccc21 [Example 36]"
  IC50 / µM: 0.109

a: Cc1cc(Cl)cc(Cl)c1-c1noc(C(C)(C)F)c1C(=O)n1cc(C)c2c(/C=C/C(=O)O)cccc21 [Example 59]
b: C=CC(=O)N1CCC(c2onc(-c3c(C)cc(Cl)cc3C)c2C(=O)n2ccc3c(/C=C/C(=O)O)cccc32)CC1 [Example 110]
Incoming: For the pair a and b , which entry has the numerically smaller recorded IC50? To answer, give the label that identifies your chosen option.
Outgoing: a
(a: 0.117 µM, b: 0.316 µM)

====

- SUBJECT_OF_TEST: IDH1R132C (Homo sapiens (Human), UniProt O75874, R132C)
- TEST_SUMMARY: Inhibitory activity against IDH1R132C enzyme (NADPH detection, WST-8)
- PROTOCOL_CONDITIONS: 10 nM, residual NADPH detected with WST-8, read-out: Test Example 1 IDH1 R132C IC50
pIC50: −log10 of the molar value.
MEASURE_NAME: pIC50

- MOLECULE: "CC(C)(F)c1onc(-c2ccc(Cl)c(F)c2Cl)c1C(=O)n1cc2c3c(cccc31)/C(=C/C(=O)O)CC2"
  SUBJECT_OF_TEST: "IDH1R132C (Homo sapiens (Human), UniProt O75874, R132C)"
  REPORTED: 6.57
- MOLECULE: "O=C(O)/C=C/c1cccc2c1ccn2C(=O)c1c(-c2c(Cl)cccc2Cl)noc1N1CCCC1"
  SUBJECT_OF_TEST: "IDH1R132C (Homo sapiens (Human), UniProt O75874, R132C)"
  REPORTED: 6.91

P: C=CC(=O)N1CCN(c2onc(-c3c(Cl)cccc3Cl)c2C(=O)n2ccc3c(/C=C/C(=O)O)cccc32)CC1
Q: COCC(C)(C)c1onc(-c2c(Cl)cc(Cl)cc2Cl)c1C(=O)n1ccc2c(/C=C/C(=O)O)cccc21
Incoming: For the pair P and Q , which entry has the numerically smaller recorded pIC50? To answer, give the label that identifies your chosen option.
Outgoing: Q
(Q: 6.66, P: 6.91)

====

- SUBJECT_OF_TEST: IDH1R132C (Homo sapiens (Human), UniProt O75874, R132C)
- TEST_SUMMARY: Inhibitory activity against IDH1R132C enzyme (NADPH detection, WST-8)
- PROTOCOL_CONDITIONS: 10 nM, residual NADPH detected with WST-8, read-out: Test Example 1 IDH1 R132C IC50
pIC50: −log10 of the molar value.
MEASURE_NAME: pIC50

- COMPOUND: "Cc1cn(C(=O)c2c(-c3cc(F)c(Cl)cc3Cl)noc2C(C)(C)F)c2cccc(/C=C/C(=O)O)c12 [Example 63]"
  pIC50: 6.84
- COMPOUND: "C=CC(=O)N1C[C@@H](C)N(c2onc(-c3c(Cl)cccc3Cl)c2C(=O)n2ccc3c(/C=C/C(=O)O)cccc32)[C@@H](C)C1 [Example 144]"
  pIC50: 6.82

a: C=CC(=O)N1CCN(c2onc(-c3c(Cl)cccc3Cl)c2C(=O)n2ccc3c(/C=C/C(=O)O)cccc32)C(C)(C)C1 [Example 153]
b: Cc1cn(C(=O)c2c(-c3c(Cl)cc(Cl)cc3Cl)noc2C2(C)COC2)c2cccc(/C=C/C(=O)O)c12 [Example 2]
Incoming: Which one would you say has the larger pIC50 value: a , or b ? To answer, give the label that identifies your chosen option.
Outgoing: b

====

- Test system: HT-1080 cells expressing IDH1R132C
- TEST_SUMMARY: 2-HG production inhibitory activity using HT1080 cell
- Format: cell-based, human
- PROTOCOL_CONDITIONS: Homo sapiens, HT-1080; 2-HG production, HT1080 cells; read-out: Test Example 3 IC50
- Procedure: Then, 100 μL of growth medium B was added to each well, further 25 μL of a solution of each compound diluted to a predetermined concentration with growth medium B was added to each well, and the cells were incubated at 37° C. for 2 days under 5% CO2. […] Then, 150 μL of ultrapure water was further added to each well, and the mixture was stirred by pipetting and stored at −20° C. The preserved solutions were thawed at room temperature.
MEASURE_NAME: IC50 (nM)

- COMPOUND: "Cc1cn(C(=O)c2c(-c3c(Cl)cc(Cl)cc3Cl)noc2C2(N(C)C)CC2)c2cccc(/C=C/C(=O)O)c12 [Example 82]"
  UNIT_OF_MEASUREMENT: "nM"
  IC50: 10

1: Cc1cc(C)c(-c2noc(C(C)(C)F)c2C(=O)n2cc(C)c3c(/C=C/C(=O)O)cccc32)c(C)c1 [Example 60]
2: CC(C)(C)c1onc(-c2c(Cl)cccc2Cl)c1C(=O)n1ccc2c(/C=C/C(=O)O)cccc21 [Example 24]
Incoming: For the pair 1 and 2 , which entry has the numerically smaller recorded IC50? To answer, give the label that identifies your chosen option.
Outgoing: 1
(1: 92 nM, 2: 255 nM)

I: COC(C)(C)c1onc(-c2c(Cl)cccc2Cl)c1C(=O)n1ccc2c(/C=C/C(=O)O)cccc21 [Example 27]
II: C=CC(=O)N1CCC(c2onc(-c3c(C)cc(Cl)cc3C)c2C(=O)n2cc(C)c3c(/C=C/C(=O)O)cccc32)CC1 [Example 122]
Incoming: Which one would you say has the larger IC50 value: I , or II ? To answer, give the label that identifies your chosen option.
Outgoing: I
(I: 128 nM, II: 6 nM)

====

- Tested on: HT-1080 cells expressing IDH1R132C
- TEST_SUMMARY: 2-HG production inhibitory activity using HT1080 cell
- Format: cell-based, human
- PROTOCOL_CONDITIONS: 2-HG production, HT1080 cells; read-out: Test Example 3 IC50
MEASURE_NAME: pIC50
Bear in mind: pIC50 is minus log10 of a mol/L concentration; give just that figure.

Incoming: Requested field: pIC50. Item: CC(C)(C)c1onc(-c2c(Cl)cc(Cl)cc2Cl)c1C(=O)n1ccc2c(/C=C/C(=O)O)ccc(F)c21
Outgoing: 6.94

====

- SUBJECT_OF_TEST: IDH1R132C (Homo sapiens (Human), UniProt O75874, R132C)
- TEST_SUMMARY: Inhibitory activity against IDH1R132C enzyme (NADPH detection, WST-8)
- PROTOCOL_CONDITIONS: 10 nM, residual NADPH detected with WST-8, read-out: Test Example 1 IDH1 R132C IC50
pIC50: −log10 of the molar value.
MEASURE_NAME: pIC50

Worked cases, answers included:
- MOLECULE: "Cc1cn(C(=O)c2c(-c3c(Cl)cc(Cl)cc3Cl)noc2C(C)(C)F)c2c(F)ccc(/C=C/C(=O)O)c12"
  pIC50: 6.98
- MOLECULE: "CNC1(c2onc(-c3c(Cl)cc(Cl)cc3Cl)c2C(=O)n2cc(C)c3c(/C=C/C(=O)O)cccc32)CCC1"
  pIC50: 7.06
- MOLECULE: "Cc1cn(C(=O)c2c(-c3c(Cl)cc(Cl)cc3Cl)noc2C2(C)CCC2)c2cccc(/C=C/C(=O)O)c12"
  pIC50: 6.75
- MOLECULE: "C=CC(=O)N1CCC(O)(c2onc(-c3c(Cl)cc(Cl)cc3Cl)c2C(=O)n2cc(C)c3c(/C=C/C(=O)O)cccc32)CC1"
  pIC50: 6.83

1: CC(C)(C)c1onc(-c2c(Cl)cc(Cl)cc2Cl)c1C(=O)n1ccc2c(/C=C/C(=O)O)cccc21
2: C=CC(=O)N1CC(C)(c2onc(-c3c(Cl)cc(Cl)cc3Cl)c2C(=O)n2ccc3c(/C=C/C(=O)O)cccc32)C1
3: CC1(c2onc(-c3c(Cl)cc(Cl)cc3Cl)c2C(=O)n2ccc3c(/C=C/C(=O)O)cccc32)COC1
Incoming: Arrange these compounds by their pIC50, starting with the largest number. Reply format: the labels, ordered as requested.
Outgoing: 3, 2, 1
(3: 7.25, 2: 6.94, 1: 6.72)
